System Tested: PAK7 (human)
Assay Explanation: radiometric filter-binding kinase assay
Details: compound 1.0 µM
Some compounds, each annotated with its measured residual activity.
Field: numeric (%). Do not append units.

Query block: Look up residual activity for this compound: FC(F)(F)c1ccc(-c2ccc(Oc3cncc4sc(-c5nn[nH]n5)cc34)cc2)cc1
Result block: 103

Query block: Please give the measured residual activity for this compound: COc1ccc2c(c1)c1c3c(c4c5ccccc5n(C)c4c1n2CC(O)CN(C)C)C(=O)NC3=O (stereo not drawn)
Result block: 81

Continuing:
Query block: // returns reported residual activity for input CC(C)(C#N)c1ccc(N2C(=O)OCc3cnc4ccc(-c5cnc6ccccc6c5)cc4c32)cc1
Result block: 99

---

This listing pairs compounds with measured residual activity.
System Tested: MELK (human) (UniProt Q14680)
Sequence (Q14680 whole entry, looked up): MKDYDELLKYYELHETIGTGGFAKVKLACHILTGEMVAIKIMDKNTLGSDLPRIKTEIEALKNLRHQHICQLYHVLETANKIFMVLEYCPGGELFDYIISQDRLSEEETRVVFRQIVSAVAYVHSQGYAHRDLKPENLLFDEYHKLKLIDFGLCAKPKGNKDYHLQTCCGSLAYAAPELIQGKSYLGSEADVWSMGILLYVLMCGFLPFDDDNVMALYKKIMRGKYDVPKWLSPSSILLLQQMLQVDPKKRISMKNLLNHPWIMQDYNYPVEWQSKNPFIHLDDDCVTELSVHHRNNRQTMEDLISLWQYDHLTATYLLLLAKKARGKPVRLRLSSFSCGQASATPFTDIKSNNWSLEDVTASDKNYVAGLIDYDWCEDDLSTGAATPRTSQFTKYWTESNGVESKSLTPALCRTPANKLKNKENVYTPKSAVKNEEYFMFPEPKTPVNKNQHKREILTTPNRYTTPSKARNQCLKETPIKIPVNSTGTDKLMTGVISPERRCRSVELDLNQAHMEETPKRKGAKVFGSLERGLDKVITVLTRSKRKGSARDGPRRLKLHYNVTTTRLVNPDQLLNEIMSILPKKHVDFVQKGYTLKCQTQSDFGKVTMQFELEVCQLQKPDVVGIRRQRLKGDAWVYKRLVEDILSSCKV
Assay Explanation: radiometric filter-binding kinase assay
Details: compound 1.0 µM
Supply the numeric figure in %, leaving out any unit text.

Would you please look over these solved cases?
Query block: Fill in the blank: the reported residual activity of Cc1cccc(Nc2nn(C)c3ncnc(N)c23)c1 is ____.
Result block: 108

Query block: If you can, please state the reported residual activity value of Cc1cc(NC(=O)c2cccc(NC(=O)/C=C/CN(C)C)c2)ccc1Nc1nccc(-c2cccnc2)n1 .
Result block: 63

Query block: I am curious: what residual activity value has been reported for CN1C(=O)[C@@H](Cc2c[nH]c3ccccc23)NC1=S ?
Result block: 88

Query block: Could you tell me which residual activity is on file for COc1ccc(N(C(=O)Nc2c(C)cccc2C)c2cc(Nc3ccc(N4CCN(C)CC4)cc3)ncn2)c(OC)c1 ?
Result block: 71

Query block: Looking for the measured residual activity of NC(=O)c1cc2c(-c3cccc(-c4ccccc4)c3)cnc(N)c2s1 , can you help?
Result block: 57

More entries:
Query block: Give its residual activity value. Item: Cc1ccc(=O)n(-c2ccccc2)c1
Result block: 94

Query block: Could you share which residual activity value was measured for Cc1cc(SCc2sc(-c3ccc(C(F)(F)F)cc3)nc2C)ccc1OCC(=O)O ?
Result block: 79

Query block: Param item = FC(F)(F)c1ccc(-c2ccc(Oc3cncc4sc(-c5nn[nH]n5)cc34)cc2)cc1 ; retrieve measured residual activity.
Result block: 81

Query block: Given Cn1nc(Nc2ccc(F)cc2)c2c(N)ncnc21 , state its recorded residual activity.
Result block: 109

Query block: Name the reported residual activity value associated with the compound c1ccc2c(-c3cnn4cc(-c5ccc(N6CCNCC6)cc5)cnc34)ccnc2c1
Result block: 54

---

System Tested: UniProt P07947
Sequence (P07947 whole entry, looked up): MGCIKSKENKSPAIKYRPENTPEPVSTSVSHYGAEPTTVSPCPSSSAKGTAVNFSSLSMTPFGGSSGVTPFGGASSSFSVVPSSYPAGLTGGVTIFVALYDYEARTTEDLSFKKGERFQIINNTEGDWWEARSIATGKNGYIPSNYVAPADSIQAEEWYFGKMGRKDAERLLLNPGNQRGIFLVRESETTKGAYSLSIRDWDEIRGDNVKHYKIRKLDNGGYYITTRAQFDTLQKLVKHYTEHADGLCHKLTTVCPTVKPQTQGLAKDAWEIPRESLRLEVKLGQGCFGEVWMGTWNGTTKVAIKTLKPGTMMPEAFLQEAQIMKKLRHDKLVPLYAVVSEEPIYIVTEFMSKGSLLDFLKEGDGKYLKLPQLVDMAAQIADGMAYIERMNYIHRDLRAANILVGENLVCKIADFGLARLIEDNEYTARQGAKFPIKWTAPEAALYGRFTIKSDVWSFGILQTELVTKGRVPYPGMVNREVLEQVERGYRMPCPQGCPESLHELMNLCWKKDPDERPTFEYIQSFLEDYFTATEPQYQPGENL
Assay Explanation: radiometric filter-binding kinase assay
Details: compound 1.0 µM
Items are presented alongside their recorded residual activity.
I only need the number, in %, no unit after it.

Example entries begin here.
Query block: Entry O=C(NCCCNc1nc(Nc2cccc(CN3CCOCC3)c2)ncc1C1CC1)C1CCC1 , system UniProt P07947: what residual activity was measured?
Result block: 71

Query block: Kindly state the measured residual activity obtained for O=C(Nc1ccccc1-c1cn2c(CN3CCNCC3)csc2n1)c1cnc2ccccc2n1 with UniProt P07947.
Result block: 82

Query block: Requested read-out residual activity, target or system UniProt P07947, entry O=C1Nc2nc(-c3c(O)cccc3OCC3CC3)cc(C3CCCNC3)c2CO1 (stereo not given)
Result block: 94

Others:
Query block: # value lookup — system UniProt P07947, readout residual activity, item C[C@H]1CCCC(=O)CCC/C=C/c2cc(O)cc(O)c2C(=O)O1
Result block: 79

Query block: // lookup residual activity | system=UniProt P07947 | key= N#Cc1c(C2CCNCC2)cc(-c2c(O)cccc2OCC2CC2)nc1N
Result block: 79

Query block: Please provide the recorded residual activity for O=C(O)c1cc(N=Nc2ccc(S(=O)(=O)Nc3ccccn3)cc2)ccc1O , tested on UniProt P07947.
Result block: 113

Query block: Please tell me: residual activity of FC(F)(F)c1ccc(-c2ccc(Oc3cncc4sc(-c5nn[nH]n5)cc34)cc2)cc1 , system UniProt P07947?
Result block: 100

Query block: Form field: residual activity recorded for O=C(O)c1ccc(-c2c[nH]c3ncc(-c4ccccc4)cc23)cc1C1CCCC1 with UniProt P07947 (enter value)
Result block: 93

Query block: Request - read-out residual activity | tested on UniProt P07947 | compound CNC(=O)C1[C@H]2O[C@@](C)([C@@H]1N)n1c3ccccc3c3c4c(c5c6ccccc6n2c5c31)C(=O)NC4 (stereo not given in full)
Result block: 2

Query block: Report residual activity for c1ccc2c(-c3cnn4cc(-c5ccc(N6CCNCC6)cc5)cnc34)ccnc2c1 tested on UniProt P07947.
Result block: 21

Query block: # query: residual activity | item COc1cc(C(=O)N2CCOCC2)c(F)cc1Nc1ncc(C(F)(F)F)c(NC2CC2)n1 | system: UniProt P07947
Result block: 89

Query block: # value lookup — system UniProt P07947, readout residual activity, item O=c1c(O)c(-c2ccc(O)c(O)c2)oc2cc(O)c(O)c(O)c12
Result block: 42

Query block: Recorded residual activity for CCCCCc1ccc(/C=C/[C@H](O)[C@@H](CO)NC)cc1 with UniProt P07947, please?
Result block: 100

Query block: Form: Entry = Cc1ccc(Sc2cnc(Nc3cccc(Br)n3)s2)cc1C(=O)N1CCN(C(=O)CN)CC1 | System = UniProt P07947 | residual activity = ____
Result block: 11

Query block: API: value(readout=residual activity, system=UniProt P07947) for record CCNc1nc(Nc2cc(F)c(C(=O)N3CCOCC3)cc2OC)ncc1C(F)(F)F
Result block: 104

Query block: Please tell me: residual activity of NC(=O)Nc1ccc2c(c1)/C(=C/c1cc(-c3cccnc3)c[nH]1)C(=O)N2 , system UniProt P07947?
Result block: 8

Query block: Param readout = residual activity; param system = UniProt P07947; param query = CN(C)C/C=C/C(=O)Nc1cccc(C(=O)Nc2ccc(Nc3nccc(-c4cccnc4)n3)cc2)c1 ; response: value
Result block: 58

Query block: // map Cc1nc(-c2ccc(OCC(C)C)c(C#N)c2)sc1C(=O)O to recorded residual activity (system: UniProt P07947)
Result block: 117

Query block: What measured residual activity is associated with O=C(N[C@@H](COc1ccc2[nH]c(=O)[nH]c2c1)c1ccccc1)c1cccn(Cc2ccc(F)c(F)c2)c1=O on UniProt P07947?
Result block: 105

Query block: For the record Nc1cccc2c1CN(C1CCC(=O)NC1=O)C2=O (stereo not given) , what value of residual activity is listed for UniProt P07947?
Result block: 102

---

System Tested: MARK3 (human) (UniProt P27448)
Sequence (P27448 whole entry, looked up): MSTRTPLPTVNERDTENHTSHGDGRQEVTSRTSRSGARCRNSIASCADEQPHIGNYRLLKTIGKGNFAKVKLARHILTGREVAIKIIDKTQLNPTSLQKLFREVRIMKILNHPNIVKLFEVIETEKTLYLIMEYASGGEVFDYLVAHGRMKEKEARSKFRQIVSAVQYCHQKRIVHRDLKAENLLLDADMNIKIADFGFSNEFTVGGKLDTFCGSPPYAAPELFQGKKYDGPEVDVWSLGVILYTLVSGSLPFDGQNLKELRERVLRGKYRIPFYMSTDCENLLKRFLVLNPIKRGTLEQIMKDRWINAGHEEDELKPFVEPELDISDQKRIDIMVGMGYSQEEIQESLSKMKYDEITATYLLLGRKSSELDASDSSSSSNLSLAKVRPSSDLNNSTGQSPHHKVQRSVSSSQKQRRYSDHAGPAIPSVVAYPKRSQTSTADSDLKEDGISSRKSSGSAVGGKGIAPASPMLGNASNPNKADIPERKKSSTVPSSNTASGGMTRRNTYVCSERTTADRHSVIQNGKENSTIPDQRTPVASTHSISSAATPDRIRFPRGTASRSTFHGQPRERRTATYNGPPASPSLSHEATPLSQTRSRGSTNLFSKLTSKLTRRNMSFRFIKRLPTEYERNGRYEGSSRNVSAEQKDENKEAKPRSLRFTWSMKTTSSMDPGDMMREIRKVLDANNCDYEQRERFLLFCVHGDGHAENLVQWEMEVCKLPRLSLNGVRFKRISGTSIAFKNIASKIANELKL
Assay Explanation: radiometric filter-binding kinase assay
Details: compound 10.0 µM
Listed next: entries and their corresponding residual activity.
Only the number, expressed in %, is required.

Examples with answers:
Query block: Param item = CCn1c(-c2nonc2N)nc2cncc(CNC3CCNCC3)c21 ; retrieve measured residual activity.
Result block: 56

Query block: Fill in: residual activity of O=C(N[C@@H](COc1ccc2[nH]c(=O)[nH]c2c1)c1ccccc1)c1cccn(Cc2ccc(F)c(F)c2)c1=O is ___
Result block: 83

Query block: Given the entry CCCCCc1ccc(/C=C/[C@H](O)[C@@H](CO)NC)cc1 , report its measured residual activity.
Result block: 105

***
Query block: For the molecule NC(=O)c1ccc(-c2ccc(Oc3cncc4sc(-c5nn[nH]n5)cc34)cc2)cc1 , what residual activity is on record?
Result block: 71

Query block: Would you mind telling me what residual activity value was observed for FC(F)(F)c1ccc(-c2ccc(Oc3cncc4sc(-c5nn[nH]n5)cc34)cc2)cc1 ?
Result block: 51

Query block: Entry Cn1nc(Nc2ccc(F)cc2)c2c(N)ncnc21 : reported residual activity = ?
Result block: 79

Query block: Recorded residual activity of C[C@H]1CCCC(=O)CCC/C=C/c2cc(O)cc(O)c2C(=O)O1 , please.
Result block: 99

---

System Tested: MAPK7 (human) (UniProt Q13164)
Sequence (Q13164 whole entry, looked up): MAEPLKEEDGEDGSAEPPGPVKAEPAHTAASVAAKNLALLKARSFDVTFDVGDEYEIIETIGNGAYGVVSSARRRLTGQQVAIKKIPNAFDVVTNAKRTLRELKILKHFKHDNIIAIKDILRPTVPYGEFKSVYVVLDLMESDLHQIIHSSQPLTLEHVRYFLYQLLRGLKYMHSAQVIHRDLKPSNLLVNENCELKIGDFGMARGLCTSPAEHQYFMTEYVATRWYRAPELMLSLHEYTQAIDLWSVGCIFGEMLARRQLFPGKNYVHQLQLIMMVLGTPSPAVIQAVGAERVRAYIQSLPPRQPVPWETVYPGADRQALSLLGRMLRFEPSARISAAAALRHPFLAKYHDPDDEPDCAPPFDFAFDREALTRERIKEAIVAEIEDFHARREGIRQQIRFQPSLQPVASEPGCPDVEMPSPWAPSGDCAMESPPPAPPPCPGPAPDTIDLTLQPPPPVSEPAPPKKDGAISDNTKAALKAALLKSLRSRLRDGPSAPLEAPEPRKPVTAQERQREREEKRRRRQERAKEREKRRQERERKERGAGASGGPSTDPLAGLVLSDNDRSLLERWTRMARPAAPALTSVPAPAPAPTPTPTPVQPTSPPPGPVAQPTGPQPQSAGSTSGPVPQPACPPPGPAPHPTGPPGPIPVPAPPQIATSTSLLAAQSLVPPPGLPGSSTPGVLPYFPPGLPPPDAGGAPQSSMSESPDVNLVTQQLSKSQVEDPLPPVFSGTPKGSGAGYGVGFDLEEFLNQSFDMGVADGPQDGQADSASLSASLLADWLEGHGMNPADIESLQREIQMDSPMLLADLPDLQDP
Assay Explanation: radiometric filter-binding kinase assay
Details: compound 1.0 µM
In this section we review reported residual activity values for a set of molecules.
Your answer should be a plain number; it is taken to be in %.

Query block: Tell me the measured residual activity of CNC(=O)C1[C@H]2O[C@@](C)([C@@H]1N)n1c3ccccc3c3c4c(c5c6ccccc6n2c5c31)C(=O)NC4 (stereo partly specified) , please.
Result block: 12

Query block: Item NCC(=O)Nc1ccc(-n2nc(C(F)(F)F)cc2-c2ccc3c(ccc4ccccc43)c2)cc1 has what recorded residual activity?
Result block: 91

Query block: What measured residual activity goes with COc1cc(C(=O)N2CCOCC2)c(F)cc1Nc1ncc(C(F)(F)F)c(NC2CC2)n1 ?
Result block: 66

Query block: Give its residual activity value. Item: CCNc1nc(Nc2cc(F)c(C(=O)N3CCOCC3)cc2OC)ncc1C(F)(F)F
Result block: 65

Query block: Any idea what residual activity was measured for Nc1cccc2c1CN(C1CCC(=O)NC1=O)C2=O (stereo unspecified) ?
Result block: 98

Next:
Query block: // lookup residual activity for CCn1c(-c2nonc2N)nc2cncc(CNC3CCNCC3)c21
Result block: 83
